tested on: RSK1(Kin.Dom.1-N-terminal); construct: gene RPS6KA1; conditions: concentration: 1 μM, replicates: in singlicate; n = 1;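 also: KINOMEscan kinase panel screen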
Provide the reported %Inh of each item.

Field: example entries. Status: answers known.
Cl.c1ccc(-c2n[nH]cc2-c2ccnc(-c3ccc(CN4CCOCC4)cc3)c2)nc1 [GW776245]; 0%
Cc1cccc(-c2nc(Nc3ccncc3)c3ccccc3n2)n1 [GW855857]; 0%

Field: next molecule
Consider the molecule shown here: Cc1c(Cn2ccn3c(=O)cc(N4CCOCC4)nc23)cccc1C(F)(F)F [GSK2289044] What is its recorded %Inh?
0%

###

Provide the reported %Inh of each item.
system: PKN2; conditions: concentration: 1 μM, replicates: in singlicate; n = 1
Answers are plain numbers, in %.

Field: example entries. Status: answers known.
COC(=O)c1c(-c2ccccc2)c2cc(OC)ccc2c(=O)n1Cc1ccccc1; 0
Cc1nnc(-c2ccc3occ(-c4ccc(S(C)=O)cc4)c3c2)[nH]1 (centres unmarked); 0
O=C1NC(=O)C(N2CCc3ccccc32)=C1c1ccccc1Cl; 13

Give %Inh for all compounds that follow.
1. CC(C)(C)c1ccc(C(=O)Nc2cn3cc(Cl)ccc3n2)cc1
2. Cc1csc(-c2nc(Nc3ccncc3)c3ccccc3n2)n1
3. CC(=O)Nc1nc2cnc(Nc3cc(NC(=O)c4cccc(CCC#N)c4)ccc3C)nc2s1
4. Cc1cccc(-c2nc(-c3ccc(S(C)(=O)=O)cc3)sc2-c2ccnc(NCCc3ccccc3)c2)c1
5. O=C(Nc1n[nH]c2nc(-c3nccs3)c(Br)cc12)C1CC1

1. 1
2. 23
3. 0
4. 13
5. 0

###

system: DCAMKL1; construct: gene DCLK1; settings: concentration: 1 μM, replicates: in singlicate; n = 1
assayMetric: %Inh (%)
Answers are plain numbers, in %.

Give %Inh for all compounds that follow.
1. COc1cccc(NC(=O)NC2CCN(c3ccnc(Nc4ccc(F)cc4)n3)C2)c1 (stereo not shown)
2. Cc1ccc(C(=O)Nc2ccc(Nc3ccnc4cc(-c5ccccn5)ccc34)cc2O)cc1.Cl
3. Nc1ncnc2[nH]c(-c3ccccc3)nc12

1: 11; 2: 0; 3: 11

Give %Inh for all compounds that follow.
1. COc1ccc(Nc2nccc(-c3cccc(NC(=O)c4cc5cc(F)ccc5[nH]4)c3)n2)cc1
2. COc1ccccc1-c1ccc2c(NC(=O)C3CC3)n[nH]c2n1
3. Cc1ccc(NC(=O)Nc2cccc(Cl)c2)cc1-c1ccc(C(=O)Nc2ccncc2)cc1
4. Cn1cncc1-c1ccc2ncnc(Nc3ccc(OCc4ccccc4)cc3)c2c1

4
0
17
0

Give %Inh for all compounds that follow.
1. Cc1cc(NCC(c2ccccc2)c2ccccc2)nc(NCc2ccc(C(F)(F)F)cc2)n1
2. COc1cc2ncn(-c3cc(OCC4CCCO4)c(C(N)=O)s3)c2cc1OC (stereo not shown)
3. Cc1cccc(-c2nc(Nc3ccncc3)c3ccccc3n2)n1
4. Cl.O=C(Nc1cccc(-c2nn3ncccc3c2-c2ccnc(Nc3cccnc3)n2)c1)c1c(F)cccc1F
5. COc1cc2ncnc(Nc3ccc4nc(-c5ccccc5)[nH]c4c3)c2cc1OC.Cl

0
18
14
12
8

###

tested on: CLK2; conditions: concentration: 1 μM, replicates: in singlicate; n = 1
assayMetric: %Inh (%)
One number for each entry, in %.

Field: example entries. Status: answers known.
COc1ccc(C2=C(Nc3cccc(C(=O)O)c3)C(=O)NC2=O)cc1; 3
COc1ccc(CNC(=O)NC2CCN(c3ccnc(Nc4cc(OC)c(OC)c(OC)c4)n3)C2)cc1 (centres unmarked); 0
NC(=O)c1nnc2ccccc2c1N; 17
COc1ccccc1-c1ccc2c(NC(=O)C3CC3)n[nH]c2n1; 0
Cc1csc(-c2nc(Nc3ccncc3)c3ccccc3n2)n1; 19

Give %Inh for all compounds that follow.
1. O=C(Nc1n[nH]c2nc(-c3nccs3)c(Br)cc12)C1CCCC1
2. CS(=O)(=O)c1ccc(-c2c(-c3ncn[nH]3)sc(N3CCOCC3)c2C#N)cc1
3. Cl.NC(=O)c1cccc(Nc2nccc(Nc3ccc(Oc4cccc(Cl)c4)c(Cl)c3)n2)c1
4. O=C(O)COc1ncnc2cc(-c3ccc4[nH]ncc4c3)sc12

[0, 8, 0, 43]

###

test system: NEK10; conditions: concentration: 1 μM, replicates: in singlicate; n = 1
assayMetric: %Inh (%)
Answers are plain numbers, in %.

Field: example entries. Status: answers known.
Cc1nnc(-c2ccc3occ(-c4ccc(S(C)=O)cc4)c3c2)[nH]1 (stereo not shown); 0
Cc1c(O)cccc1Nc1ccnc2ccc(C(F)(F)F)cc12.Cl; 16
CCn1c(-c2ccccn2)nc2cnccc21; 26

Field: next molecule
Consider the molecule shown here: `O=C(Nc1n[nH]c2cc(-c3cccc(F)c3F)ccc12)C1CC1` What is its recorded %Inh?
0

###

test system: JAK2(JH1domain-catalytic); conditions: concentration: 1 μM, replicates: in singlicate; n = 1
assayMetric: %Inh (%)
Give bare numbers, in %.

Field: example entries. Status: answers known.
Cc1ccc(-c2cc(-c3c[nH]nc3-c3ccccn3)ccn2)cc1 [GW684088]; 0
O=C(Nc1n[nH]c2nc(-c3nccs3)c(Br)cc12)C1CCCC1 [SB-742609]; 23
CCn1c(-c2cccnc2O)nc2cnccc21 [SB-736715]; 0
O=C1NC(=O)C(N2CCc3ccccc32)=C1c1ccccc1Cl [SB-373598]; 0
COC(=O)c1c(-c2ccccc2)c2cc(OC)ccc2c(=O)n1Cc1ccccc1; 0

Give %Inh for all compounds that follow.
1. CS(=O)(=O)c1ccc(-c2c(-c3ncn[nH]3)sc(N3CCOCC3)c2C#N)cc1
2. Cn1ccc2ncnc(Oc3cccc(C(=O)Nc4ccccc4)c3)c21
3. Cc1nnc(-c2ccc3occ(-c4ccc(S(C)=O)cc4)c3c2)[nH]1 (stereo not drawn)

1: 0; 2: 12; 3: 11

Consider the compound shown here: COc1ccccc1-c1ccc2c(NC(=O)C3CC3)n[nH]c2n1 [SB-711239] What is its recorded %Inh?
0

###

Provide the reported %Inh of each item.
system: MERTK; conditions: concentration: 1 μM, replicates: in singlicate; n = 1
Answers are plain numbers, in %.

Field: example entries. Status: answers known.
COC(=O)c1c(-c2ccccc2)c2cc(OC)ccc2c(=O)n1Cc1ccccc1; 3
Nc1nc(-c2nccs2)c(-c2ccnc3ccccc23)s1; 22
O=C(Nc1ccc2c(c1)OCO2)NC1CCN(c2ccnc(Nc3ccc(F)cc3)n2)C1 (stereo not drawn); 0
Cc1nnc(-c2ccc3occ(-c4ccc(S(C)=O)cc4)c3c2)[nH]1 (stereo not drawn); 13
Cc1cccc(-c2nc(Nc3cccc(C(N)=O)c3)c3ccccc3n2)n1; 11
Cl.NC(=O)c1cccc(Nc2nccc(Nc3ccc(Oc4cccc(Cl)c4)c(Cl)c3)n2)c1; 33

Give %Inh for all molecules that follow.
1. COc1ccccc1CNC(=O)c1cc(C(=O)c2ccccc2C)c[nH]1
2. Cl.c1ccc(-c2n[nH]cc2-c2ccnc(-c3ccc(CN4CCOCC4)cc3)c2)nc1
3. Cc1c(O)cccc1Nc1ccnc2ccc(C(F)(F)F)cc12.Cl
4. Cn1ccc2ncnc(Oc3ccc(Nc4nc5ccccc5[nH]4)cc3)c21
5. CS(=O)(=O)c1ccc(-c2c(-c3ncn[nH]3)sc(N3CCOCC3)c2C#N)cc1
6. COc1cc2ncnc(Nc3ccc4nc(-c5ccccc5)[nH]c4c3)c2cc1OC.Cl
7. COc1ccc2nc(-c3cccc(C)n3)nc(Nc3ccncc3)c2c1

1: 0; 2: 8; 3: 0; 4: 8; 5: 0; 6: 0; 7: 15

###

Provide the reported %Inh of each item.
tested on: PKAC-alpha; construct: gene PRKACA; conditions: concentration: 1 μM, replicates: in singlicate; n = 1

Cc1cc(-c2ccc3c(c2)CC[C@@H](N[C@@H](C)c2ccccc2)C3)cnc1N.Cl [GW412617]; 0%
COc1cc2ncnc(Nc3ccc4nc(-c5ccccc5)[nH]c4c3)c2cc1OC.Cl [GW282450]; 6%
Cc1cc(N2Cc3ccccc3C2)nc(Nc2ccc(S(=O)(=O)N3CCOCC3)cc2)n1.Cl [GSK1669917]; 0%
COC(=O)c1c(-c2ccccc2)c2cc(C(=O)O)ccc2c(=O)n1Cc1ccccc1; 0%
Cc1ccc(C(=O)Nc2ccc(Nc3ccnc4cc(-c5ccccn5)ccc34)cc2O)cc1.Cl [GW440146]; 0%

Give %Inh for all compounds that follow.
1. CS(=O)(=O)c1ccc(-c2c(-c3ncn[nH]3)sc(N3CCOCC3)c2C#N)cc1
2. COc1cc2nccc(Nc3ccc(NC(=O)c4ccc(C)cc4)c(O)c3)c2cc1OC.Cl [GW440132]
3. O=S(=O)(c1ccc(-c2ccnc3[nH]ccc23)cc1)N1CCCC1 [GSK846226]

0%
12%
81%

###

tested on: PRKG1; conditions: concentration: 1 μM, replicates: in singlicate; n = 1
Provide the reported %Inh of each item.
One number for each entry, in %.

Field: example entries. Status: answers known.
O=C(Nc1ccccc1)Nc1cccc(Oc2ccc3nccn3n2)c1; 4
O=C(Nc1n[nH]c2nc(-c3nccs3)c(Br)cc12)C1CCCC1; 2
COc1cc2nccc(Nc3ccc(NC(=O)c4ccc(C)cc4)c(O)c3)c2cc1OC.Cl; 0
CC(=O)Nc1nc2cnc(Nc3cc(NC(=O)c4cccc(CCC#N)c4)ccc3C)nc2s1; 15

Give %Inh for all compounds that follow.
1. CS(=O)(=O)c1ccc(-c2c(-c3ncn[nH]3)sc(N3CCOCC3)c2C#N)cc1
2. COc1cc2ncn(-c3cc(OCC4CCCO4)c(C(N)=O)s3)c2cc1OC (stereo not drawn)
3. Cc1nnc(-c2ccc3occ(-c4ccc(S(C)=O)cc4)c3c2)[nH]1 (stereo not drawn)
4. Cc1cccc(-c2nc(Nc3cccc(C(N)=O)c3)c3ccccc3n2)n1

1: 12; 2: 0; 3: 0; 4: 0

Consider the compound shown here: `Cc1cc(N2Cc3ccccc3C2)nc(Nc2ccc(S(=O)(=O)N3CCOCC3)cc2)n1.Cl` What is its recorded %Inh?
0
